Where do these numbers come from? They come from a melting point compilation (Tetko et al.; mined from patent text by program, amines drawn as free bases though some values may be those of a salt).

Provide the reported melting point of each item.

Reference set, count: 8
compound: CCOC(=O)c1ccc(-c2ccc(-c3ccccc3OC)c(-c3ccc4c(c3)C(C)(C)CCC4(C)C)c2)cc1
melting point: 133 to 136 °C
//
compound: O=C(CO)Nc1ccc(O)cc1
melting point: 141 to 143 °C
//
compound: CN1CCC(c2n[nH]c3cc(F)ccc23)CC1
melting point: 217 to 220 °C
//
compound: N#CC(C#N)=C1Sc2nc3ccc(C(F)(F)F)cc3nc2S1
melting point: 197 to 199 °C
//
compound: CCCC1CC(NCC)=C(c2cccc(C(F)(F)F)c2)C1=O (configuration not stated)
melting point: 120 °C
//
compound: Cc1nc(N)c2nc(C)n(NCCCNS(C)(=O)=O)c2c1C
melting point: 215 to 217 °C
//
compound: Nc1cc(N)cc(O)c1
melting point: 168 to 170 °C
//
compound: CN(C)C=CC(=O)c1cccnc1
melting point: 66 to 67 °C

Would you be so kind as to report melting point for each listed record?
1. COc1ccccc1N1CCN(Cc2cnc(N)nc2N)CC1
2. CCOC(=O)C(C)=NNc1ccc(F)cc1F
3. CN(C)C(=O)c1nc(-c2ccncc2)nc2c1c1ccc(Cl)cc1n2C

Response:
1: 195 to 196 °C; 2: 153 to 156 °C; 3: 268 to 269 °C

Request: Using the record for CCCc1nc2c(N)nc(C)c(C)c2n1CCCCS(C)(=O)=O , report its melting point.
Response: 152 to 153 °C

###

I'd be grateful if you could share measured melting point for these entries.

Below are worked cases with known answers.
compound: COc1ncccc1C(=O)NCCc1ccc(CC(=O)O)cc1
experimental.value: 157 to 158 °C
//
compound: Cc1oc2c(C=Cc3c(Cl)cccc3Cl)cccc2c1C
experimental.value: 93 to 94 °C
//
compound: CN1C(=O)N2[C@H](c3cccc(O)c3)c3[nH]c4ccc(Cl)cc4c3C[C@@]2(C)C1=O (racemic)
experimental.value: 248 to 250 °C
//
compound: COc1ccc(S(=O)(=O)Nc2cccnc2Nc2ccc(C(=O)O)cc2)cc1
experimental.value: 248 to 250 °C

Request: # get_value(readout='melting point', item= CCn1c(=O)c(-c2cc(OC)cc(OC)c2)cc2cnc(SC)nc21 )
Response: 120 to 122 °C

###

Would you mind telling me the reported melting point of each entry?

In the examples that follow, each entry is paired with its recorded melting point.
molecule: CN(Cc1ccc(F)cc1)C1CCN(c2ccc(C(=O)O)cc2)CC1
experimental.value: 256 to 258 °C

molecule: CN1C(=O)c2ccc(CBr)cc2S1(=O)=O
experimental.value: 153 to 154 °C

The following molecules each have a reported value; give each one's melting point.
1. Cc1ccc(S(=O)(=O)N(Cc2ccccc2)N(C)C(=O)C2CC(S)CN2S(=O)(=O)c2ccc3ccccc3c2)cc1 (stereo not given)
2. CC(C)n1c(=O)[nH]c2cc(-c3ncc(C(F)(F)F)cc3Cl)ccc21

Response:
1: 82.5 °C; 2: 192 to 193 °C

Would you mind giving melting point for every molecule in the list below?
1. O=C(O)Cc1ccc2c(c1)sc1cccc(Cl)c12
2. OC1CCN(c2ccncc2)CC1
3. CC(=O)Oc1ccccc1C(=O)N[C@@H]1CCCC[C@@H]1O[N+](=O)[O-] (relative stereo)
4. COC=Nc1c(C#N)c(C)nn1-c1c(Cl)cc(C(F)(F)F)cc1Cl
5. CCC(CC)Oc1nc(C)nc(Nc2c(C)cc(C)cc2C)c1CO
6. CCOC(=O)C(Cc1cc(Cl)c(Sc2ccc(OC)c(Cc3ccc(OC)nc3)c2)c(Cl)c1)(NC(C)=O)C(=O)OCC
7. NC(=O)[C@@H]1[C@H](Nc2c(Br)cnc3[nH]c(-c4cccnc4N4CCOCC4)nc23)[C@H]2C=C[C@@H]1C2

Response:
203 to 206 °C
155 to 156 °C
143 to 145 °C
75 to 78 °C
121 to 123 °C
170 to 171 °C
150 °C

Value sought for every listed molecule: melting point.
1. O=c1[nH]c(-c2ccccc2Br)nc2c1CCCC2
2. COc1nccc2c(=O)n(C)c(-c3ccc(OC4CCN(C5CCC5)CC4)cc3)nc12
3. O=[N+]([O-])c1cnc2ccc(Br)cn12
4. CCc1nc(Cl)c([N+](=O)[O-])c(NC(C)C)n1

Response:
1: 193 °C; 2: 178 to 180 °C; 3: 160 to 161 °C; 4: 51 to 52 °C

###

measurement.name: melting point

Below are worked cases with known answers.
cpd.smiles: Cn1nc(N)nc1NCCCOc1cccc(CNC2CCCCC2)c1
melting point: 102 to 103 °C

cpd.smiles: CN1C(=O)CC(C)(C)c2cc(C3(C)OCCO3)ccc21
melting point: 81 to 83 °C

cpd.smiles: C=C(CCCCCCCCC)C(N)=O
melting point: 80 to 81 °C

Provide each entry's melting point from the list below.
1. CC(C)(C)OC(=O)N1CCN(c2ccc(Br)cn2)CC1
2. Nc1cc(OCc2cccc(Cl)c2)c(C(=O)O)cc1Cl

Response:
1. 88 to 90 °C
2. 182 to 184 °C

Go through the list and state melting point for each entry.
1. COC(=O)[C@@H]1C[C@@H](OS(C)(=O)=O)CN1C(=O)C1(C(F)(F)F)CC1
2. CC(C)(C)c1cc(C(C)(C)C)[nH]n1
3. CCOc1ccc(OCc2cccc(OCc3nc(-c4ccccc4)oc3C)c2)cc1CCC(=O)O

Response:
["123 to 124 °C", "191 to 193 °C", "136 to 137 °C"]

Lab note: each compound below needs its melting point filled in.
1. CCc1nc(N)nc(N)c1N1CCN(c2ccc(C#N)cc2)CC1
2. COc1cc(Br)nc2[nH]cc(-c3ccnc(N)n3)c12
3. Nc1ncnc2c1ncn2OC[C@@H](CO)OCP(=O)(O)O

Response:
1: > 310 °C; 2: > 210 °C; 3: 200 to 205 °C

###

measurement.name: melting point

Example entries begin here.
molecule: COc1nc2ccc(Br)cc2cc1C#N
measurement.name: melting point
experimental.value: 169 to 172 °C

molecule: O=C(O)C(c1ccccc1)N1C(=O)c2cccc([N+](=O)[O-])c2C1=O (configuration not stated)
measurement.name: melting point
experimental.value: 213 to 229 °C

molecule: O=C(NCCCOc1ccc(-n2ccnc2)cc1)c1ccc(Br)cc1
measurement.name: melting point
experimental.value: 183 to 185 °C

State recorded melting point for all listed molecules.
1. CC(C)(C)OC(=O)CCC(CCC(=O)OC(C)(C)C)(CCC(=O)OC(C)(C)C)NC(=O)C=C=C[N+](=O)[O-]
2. CN1CC[C@@H](c2c(O)cc(O)c3c(=O)cc(-c4ccc([N+](=O)[O-])cc4Br)oc23)[C@@H]1CO

Response:
1: 140 to 141 °C; 2: 186 °C

###

measurement.name: melting point

// known answers, use as guide
molecule: CCOC(=O)C(=O)CC(=O)N1CCOCC1
measurement.name: melting point
experimental.value: 60 °C
--
molecule: Cc1c(CC(=O)O)oc2ccc(C(C)(C)C)cc12
measurement.name: melting point
experimental.value: 169 to 170 °C

State the recorded melting point for every item in the following list.
1. Cc1c(-c2ccccc2)c2c(c3c1[nH]c1ccc(O)cc13)C(=O)NC2=O
2. CN(C)CCNc1c(-c2ccccc2)c(=O)[nH]c2cc(Cl)ccc12
3. COc1ccc(C(=O)c2cc(-c3ccc(S(C)(=O)=O)cc3)c(N3CCOCC3)s2)cc1
4. CC1NC(=O)NN=C1c1ccc(N2CCCC2)cc1 (stereo unspecified)
5. COC(=O)c1c(-c2ccccc2)n[nH]c1C
6. COC(=O)Cc1c(NC(C)=O)n(C)c2ccccc12
7. O=C(CCC(=O)c1ccccc1)NCc1ccccc1
8. C=CCOc1ccccc1-c1nc2nc(SC)nnc2c(=O)[nH]1

Response:
["270 to 280 °C", "230 °C", "154 °C", "276 to 281 °C", "119 to 120 °C", "126 to 128 °C", "110 to 112 °C", "238 to 239 °C"]

Request: Requested read-out: melting point. Entry: CNC(=O)N(O)C(C)c1ccc(OCc2ccccc2)cc1 (stereo unspecified)
Response: 125 to 128 °C

###

measurement.name: melting point

compound: CN(CCCN)CC(O)C(O)C(O)C(O)CO (stereo not given)
melting point: 106 °C
--
compound: CC1CC(=O)NN=C1c1ccc(NC2=NCCN2)c(Br)c1 (stereo not given)
melting point: 265 to 267 °C
--
compound: CC(C)n1nc(-c2c(-c3ccccc3)nn3ccc(C(=O)NCCN(C)C)cc23)ccc1=O
melting point: 157 to 158 °C
--
compound: Cc1nc2n(c(=O)c1CCN1CCC(C(=O)c3ccc(F)cc3)CC1)CCS2
melting point: 166 °C
--
compound: O=C(NCc1ccc(Cl)cc1)c1cn2c3c(cc(CN4CCOCC4)cc3c1=O)N=C(NCc1ccccc1)C2
melting point: 235 to 240 °C

Report melting point for every entry below.
1. CCNC(=O)[C@@H]1C[C@H](SCc2ccc(OC)cc2)CN1CC
2. O=c1c2c[nH]c3ccccc3c-2nn1-c1ncccn1
3. Cc1cccc2c1NC(=O)C(CCCN1CCN(c3cccc(F)c3)CC1)S2 (stereo not given)
4. Cc1cc(C)c(Nc2nc(C)ccc2S(=O)(=O)c2ccc(OCCCCC#N)cc2)c(C)c1
5. COc1ccc2c(c1)c1c3c(c(-c4c(Cl)cccc4Cl)cc1n2CCC(N)=O)C(=O)NC3=O
6. Cc1ccc2c(c1)-n1cc(C(=O)O)nc1CO2
7. O=c1cc(Cl)c2cc(OC(F)(F)F)ccc2o1
8. Clc1ccc2ncc(Cl)nc2c1

Response:
60 to 61 °C
> 360 °C
132 to 134 °C
115 to 116 °C
261 to 264 °C
281 to 285 °C
85 to 87 °C
120 to 121 °C
